System: Aspergillus niger (500/284)
Assay: in vitro antimycotic serial dilution test (microtitration technique)
Type: cell-based
Settings: read-out: Minimale Hemmkonzentration
Source text: […]
reported_property: MIC (µg/mL)
// return numeric value only (unit: µg/mL, not printed)

// returns reported MIC for input Clc1ccc(C2(Cn3ccnc3)CCCc3ccccc32)cc1 (centres unmarked) [Verbindung 20 (Tab. 1)] 0.97

// returns reported MIC for input c1ccc(Oc2ccc(C3(Cn4ccnc4)CCCc4ccccc43)cc2)cc1 (centres unmarked) [Verbindung 70 (Tab. 1)] 0.97

// returns reported MIC for input c1ccc(Oc2ccc(C3(Cn4ccnc4)CCc4ccccc43)cc2)cc1 (centres unmarked) [Verbindung 67 (Tab. 1)] 1.95

// returns reported MIC for input Clc1ccccc1C(c1ccccc1)(c1ccccc1)n1ccnc1 [Clotrimazol, reference compound] 1.95

// returns reported MIC for input c1ccc(-c2ccc(C3(Cn4ccnc4)CCCc4ccccc43)cc2)cc1 (centres unmarked) [Verbindung 60 (Tab. 1)] 1.95
